Target: Human recombinant PKCα (Homo sapiens, UniProt P17252)
Test: Protein Kinase Cα Assay
Details: 10 μM 33P-ATP
Procedure: The compounds of the invention are tested for their activity on different PKC isoforms according to the following method. Assay is performed in a white with clear bottom 384-well microtiterplate with non-binding surface. […]
Field: IC50. Provide a value for each of the compounds that follow.
Report as a plain number; the unit nM is understood.

Prompt: I have this compound here, CNCc1ccc2c(C3=C(c4c[nH]c5ccccc45)C(=O)NC3=O)c(Cl)ccc2c1 [example 6] , and I need its recorded IC50.
Response: 1.1

Prompt: Could you do the same for Cc1cccc2c(C3=C(c4c(Cl)ccc5cc(CN(C)C)ccc45)C(=O)NC3=O)c[nH]c12 [example 5] , please?
Response: 0.9
